Collected literature values of pIC50 measured for Discoidin domain-containing receptor 2 (Homo sapiens).
pIC50: −log10 of the molar value.
ENDPOINT: pIC50

Recorded results for 2 compounds are shown here.
Cc1ccc([C@@H](C)NC(=O)Nc2ccccc2)cc1NC(=O)c1cnc2ccccn12 | 5.89
O=C(NCc1cccc(NC(=O)c2cnc3ccccn23)c1)Nc1ccccc1 | 6.55

a: CCc1ccc2c(c1)c(=O)c(C(=O)Nc1ccc(Oc3ncnc4cc(OC)c(OC)cc34)c(F)c1)c(C)n2C
b: CN1CCN(C(=O)Cn2cc(CNC(=O)Nc3ccc(F)cc3F)c3cc(F)ccc32)CC1
Sorting by pIC50 in descending order, would a or b appear first? Please identify the chosen entry by its label.
b
